Experimental protocol: protein stability index of a GFP-peptide fusion (GPS, HEK-293T) (PSI 1-6); higher = more stable;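 further: 24-mer peptide tiles fused after GFP, lentivirally expressed, FACS-sorted into six equal bins by GFP/DsRed ratio, decoded by Illumina sequencing, PSI is the read-weighted mean bin number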
Condition details: treatment: MLN4924 1 uM, 8 h; c terminus: a fixed tail appended
Think of 3 as a floor: if protein stability index stands on it or above, it is criterion met; beneath it, criterion not met.

Request: hey, is protein stability index for this one >= 3? SVVDHPMPEERASKYENYFSASER [HESX1]
Result: criterion met

Request: hey, is protein stability index for this one >= 3? TSVDHDRAPVVGVRVNVLLSRYLI [DLC1]
Result: criterion met

Request: hey, is protein stability index for this one >= 3? SWSALWNITDETPDNCEMFLNFNG [ZER1]
Result: criterion not met

Request: hey, is protein stability index for this one >= 3? RYHVIRKLGWGHFSTVWLCWDMQG [SRPK2]
Result: criterion not met

Request: hey, is protein stability index for this one >= 3? TRIHILPSMNPDGYEVAAAQGPNK [CPN1]
Result: criterion met

Request: hey, is protein stability index for this one >= 3? ETELALVKESGERKVTDSISKSLE [DLC1]
Result: criterion met

Request: hey, is protein stability index for this one >= 3? SATLSWKQPPLSTVPADGYILELD [TRIM9]
Result: criterion met

Request: hey, is protein stability index for this one >= 3? EWELLDPTQKALYNDVMQENYETV [ZNF75A]
Result: criterion met

Request: hey, is protein stability index for this one >= 3? ELSGAPRCHTVPCAGSTALQEPGE [PXN]
Result: criterion met

Request: hey, is protein stability index for this one >= 3? SVSRFFADSGADPKGEPGSKQSPP [FBF1]
Result: criterion met

Request: hey, is protein stability index for this one >= 3? MERVNETVVREVIFLGFSSLARLQ [OR10K2]
Result: criterion not met

Request: hey, is protein stability index for this one >= 3? GGAGSGFGGGYGGGLGGGYGGGLG [KRT13]
Result: criterion not met

Request: hey, is protein stability index for this one >= 3? RDFHRKILTLPEMMRMFSENLAHH [TRIM15]
Result: criterion not met

Request: hey, is protein stability index for this one >= 3? HILKARKVLTEPEVRYYLRQIVSG [PLK2]
Result: criterion not met

Request: hey, is protein stability index for this one >= 3? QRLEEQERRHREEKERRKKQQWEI [RSPH3]
Result: criterion met

Request: hey, is protein stability index for this one >= 3? LNHGASVNNTTLTNSTPLRAACFD [FEM1C]
Result: criterion met

Request: hey, is protein stability index for this one >= 3? EVVNRKFGNRIKVLRSRIRFIHLV [POMT2]
Result: criterion not met

Request: hey, is protein stability index for this one >= 3? WQYLSGGKVKLQQNPGKFDELDMS [TBC1D10A]
Result: criterion met

Request: hey, is protein stability index for this one >= 3? YGSCYTVDGVWTAQRPGITHGVGL [SCNN1D]
Result: criterion not met

Request: hey, is protein stability index for this one >= 3? GTLGSCSSSSECLEDSTMGSVADT [PLK2]
Result: criterion met

Request: hey, is protein stability index for this one >= 3? MTVEEIYKDRQKFSEQVFKVASSD [FLOT1]
Result: criterion met

Request: hey, is protein stability index for this one >= 3? TMLAGHYPFQDSEPVLLFGKIRRG [TRIB3]
Result: criterion not met

Request: hey, is protein stability index for this one >= 3? GRAQDDVSEWASKAKANGITMYAV [MATN2]
Result: criterion not met

Request: hey, is protein stability index for this one >= 3? LGWNSTERSLRLQARYHDTPYKPP [MYORG]
Result: criterion met

----------
Experimental protocol: protein stability index of a GFP-peptide fusion (GPS, HEK-293T) (PSI 1-6); higher = more stable
Condition details: treatment: DMSO; c terminus: a fixed tail appended
Property label: protein stability index

Request: Item NSLAALDLSGIQTSDAAFLTQWKD [ZER1] has what recorded protein stability index?
Result: 4.25

Request: Item WPLRGKREAMLEMLLQHQICKEVQ [SPAG8] has what recorded protein stability index?
Result: 2.17

Request: Item WKYFKGNFYYFSLIPKTWYSAEQF [CD207] has what recorded protein stability index?
Result: 3.12

Request: Item TLALQGTQGQEKMMMMGPKEEEQS [ZNF232] has what recorded protein stability index?
Result: 5.29

Request: Item SRRSYDDQLRSGSPPKSPRTTVHD [DNAJC4] has what recorded protein stability index?
Result: 4.89

Request: Item VVDIFQTVKMLRTQRPAMVQTEDQ [PTPRD] has what recorded protein stability index?
Result: 3.23

Request: Item QGTARTLSPVLESPRDLQFSEIRE [TNXB] has what recorded protein stability index?
Result: 4.64

Request: Item DEDDEDEDEDEDEDEDEDKEEEEE [TAF7L] has what recorded protein stability index?
Result: 5.46

Request: Item CVLVDTGRPIPGTSTRYEQPKCDN [SMOC2] has what recorded protein stability index?
Result: 3.79

Request: Item RPDRSSQGGSLPSEEKGHPQEESE [CHGB] has what recorded protein stability index?
Result: 5.75

Request: Item RHMREENLRLQRKLQREMERREAL [CCDC6] has what recorded protein stability index?
Result: 3.96

Request: Item MKRSKELITKNHSQEETSILRCWK [RNF180] has what recorded protein stability index?
Result: 3.11

Request: Item TILLDGRRVKLQLWDTSGQGRFCT [RAB40B] has what recorded protein stability index?
Result: 2.28

----------
Experimental protocol: protein stability index of a GFP-peptide fusion (GPS, HEK-293T) (PSI 1-6); higher = more stable
Condition details: treatment: DMSO; c terminus: a fixed tail appended
Assignment: determine reported protein stability index for the given sequences.

Request: Item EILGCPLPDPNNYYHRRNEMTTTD [CPXM2] has what recorded protein stability index?
Result: 3.24

Request: Item TNVVTGHRQSFGTNSDVLAQQFAL [DCAF4] has what recorded protein stability index?
Result: 3.35

Request: Item SDKETDIDDRYGDLDSRTDSDIPE [CDS1] has what recorded protein stability index?
Result: 5.54

Request: Item LVQLRGRLTSQDWERVHLIVAGGY [ALG2] has what recorded protein stability index?
Result: 2.03

Request: Item SRNEFDRTIAETEAAYLKILESSQ [SSNA1] has what recorded protein stability index?
Result: 3.95

Request: Item SVSRFFADSGADPKGEPGSKQSPP [FBF1] has what recorded protein stability index?
Result: 5.09

Request: Item RLLELMNQHDTEMKYYIVHLKRHF [DYRK1B] has what recorded protein stability index?
Result: 2.35

Request: Item AILSLDQIKAIRGSNEYTEGPSVV [SPRY1] has what recorded protein stability index?
Result: 3

Request: Item LGWNSTERSLRLQARYHDTPYKPP [MYORG] has what recorded protein stability index?
Result: 2.88

Request: Item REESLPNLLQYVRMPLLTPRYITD [KLHL12] has what recorded protein stability index?
Result: 2.8

Request: Item DQEGLQRITGLSPGRSALIVAVLC [SPNS1] has what recorded protein stability index?
Result: 2.31

Request: Item GVIAAIVQLHNGTKYKKFPHWLDK [STEAP1] has what recorded protein stability index?
Result: 2.6

Request: Item IVIWGVLTQKKPFADEKNILHIMV [RIPK4] has what recorded protein stability index?
Result: 3.25

Request: Item LSEKEINAREESLVEELSPASEKK [BCL2L13] has what recorded protein stability index?
Result: 5.42

Request: Item LINTSDTVQHGAVYSLEPRLCGGK [SDE2] has what recorded protein stability index?
Result: 3.97

Request: Item SGREHNFTRPNEKGEYEVAEGIGS [BTBD10] has what recorded protein stability index?
Result: 5.11

Request: Item RKKSKPKKCVKKFVEYCDVNNDKS [SMOC2] has what recorded protein stability index?
Result: 3.52

Request: Item VFKCSVSRETECSRVGKQSFIITL [CARM1] has what recorded protein stability index?
Result: 2.65

Request: Item RKVVQSLEQTAREILTLLQGVHQG [TSN] has what recorded protein stability index?
Result: 2.34

Request: Item EVDFFQRYFIADLPHLQDSFVDKL [INTS4] has what recorded protein stability index?
Result: 2.23

Request: Item KEMTQKLEALHLEALCEEDLLLWI [DENND6A] has what recorded protein stability index?
Result: 2.23

Request: Item QQLEEELLRAKIEVEKLKAIRLRH [RAD54B] has what recorded protein stability index?
Result: 5.32

Request: Item QKNFELAFTMAENLANCERLIEVE [SMTNL2] has what recorded protein stability index?
Result: 2.45

Request: Item KGKKLYPVVSAVWGHCEIRMRYLN [SPSB1] has what recorded protein stability index?
Result: 2.23

Request: Item VSPGVLVLLAVLPVLLLQITVGLV [MOG] has what recorded protein stability index?
Result: 2.92

Request: Item HNQKVHMHMVDLMSSIICEGDTVS [PDS5B] has what recorded protein stability index?
Result: 2.46

Request: Item DEEKKARRGRSPKGEFKDEEETVT [CLINT1] has what recorded protein stability index?
Result: 5.43

Request: Item NKHLFYAEDFSTMDEISEKLKKGI [MATN2] has what recorded protein stability index?
Result: 3.79

Request: Item YDSQPQDVLGIRQLERPLPLTSVC [TRAF3IP2] has what recorded protein stability index?
Result: 3.68

Request: Item AWEKLLAAFPNLANLSRTQLLHLG [KLHDC10] has what recorded protein stability index?
Result: 2.06

Request: Item APPLPDSPQPLASSPGPWGLEALA [FCHO1] has what recorded protein stability index?
Result: 4.43

Request: Item YRLLKCAPRGKNGFTPLHMAVDKD [FEM1A] has what recorded protein stability index?
Result: 2.84

Request: Item VGGKIVGSLCAIAGVLTIALPVPV [KCNA4] has what recorded protein stability index?
Result: 3.78

Request: Item LIYGSMEMFPAAQQLYRHGKAYRF [JAGN1] has what recorded protein stability index?
Result: 2.28

Request: Item VIAKWDYTAQQDQELDIKKNERLW [NCK2] has what recorded protein stability index?
Result: 3.28

Request: Item PGCGSVPGSGSGPGPGSGPGSGPG [SPAG8] has what recorded protein stability index?
Result: 4.96

Request: Item PPIPILELADHIERLKANDNLKFS [PTPRD] has what recorded protein stability index?
Result: 3.56

Request: Item AEKSGEATDGARPQALPEPMQESK [CHGA] has what recorded protein stability index?
Result: 5.47

Request: Item RDFHRKILTLPEMMRMFSENLAHH [TRIM15] has what recorded protein stability index?
Result: 2.25

Request: Item MTEAALALSEQKAQDLGELLATAE [LRRC45] has what recorded protein stability index?
Result: 5.16

Request: Item RDNPMCLKCDLQERLLCPSLLAGT [M1AP] has what recorded protein stability index?
Result: 2.28

Request: Item EGGDESDLSSESSIKKKFLKRKGK [EHMT1] has what recorded protein stability index?
Result: 5.54

Request: Item DVKKLEEAGFHTVEAVAYAPKKEL [RAD51] has what recorded protein stability index?
Result: 4.73

Request: Item TVAASDPDTGDNARLTYSIVGNQV [PCDHGC5] has what recorded protein stability index?
Result: 4.36

Request: Item DDGYSTKDSYSSRDYPSSRDTRDY [RBMX] has what recorded protein stability index?
Result: 4.9

Request: Item AGPGGGAERRRAGRLLLTLPLLRQ [ESRRA] has what recorded protein stability index?
Result: 2.53

Request: Item LKGARLTVEQGCQILDSLSYMRNE [FBXO39] has what recorded protein stability index?
Result: 2.68

Request: Item HLEKKGPQVRDWSHYFKIIEDLRA [KRT18] has what recorded protein stability index?
Result: 2.41

Request: Item YSLLPQSTAPGLFLVSTHTGEVRT [PCDHGC5] has what recorded protein stability index?
Result: 3.07

Request: Item HLQHKLICTRKPEEIRGGGLLKYC [TENT5D] has what recorded protein stability index?
Result: 2.21

Request: Item QLELRAGAERLDALLADEERCLSC [TRADD] has what recorded protein stability index?
Result: 3.98

Request: Item NHEEDAGVRCNTPAMGLQKKLRLN [LOXL2] has what recorded protein stability index?
Result: 4.64

Request: Item LLTFQQITTVSKAKGASLFTCDLQ [VPS39] has what recorded protein stability index?
Result: 2.14
